log10(IC50): recorded values
tgt: EGFR tyrosine kinase (Homo sapiens)
Construct: Recombinant intracellular fragments of EGFR, erbB2 and erbB4; made in house; host or cells: baculovirus/Sf21 insect cells (cleared lysate used)
Sequence (P00533 669-1210 limits assumed): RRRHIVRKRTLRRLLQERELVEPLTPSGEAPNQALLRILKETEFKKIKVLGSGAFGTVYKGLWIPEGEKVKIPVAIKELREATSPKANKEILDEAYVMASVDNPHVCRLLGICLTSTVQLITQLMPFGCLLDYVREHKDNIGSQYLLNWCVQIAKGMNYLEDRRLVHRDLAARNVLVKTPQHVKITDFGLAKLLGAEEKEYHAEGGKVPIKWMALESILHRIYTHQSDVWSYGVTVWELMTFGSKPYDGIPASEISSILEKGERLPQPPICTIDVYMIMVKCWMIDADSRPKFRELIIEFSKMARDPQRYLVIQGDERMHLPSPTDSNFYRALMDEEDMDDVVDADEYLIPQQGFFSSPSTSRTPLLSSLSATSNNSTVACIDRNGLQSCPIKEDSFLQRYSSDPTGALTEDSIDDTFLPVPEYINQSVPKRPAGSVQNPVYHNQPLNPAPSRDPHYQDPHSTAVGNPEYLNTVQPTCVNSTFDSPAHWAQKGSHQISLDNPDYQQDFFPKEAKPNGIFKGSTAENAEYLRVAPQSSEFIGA
test-description: Test (a) protein tyrosine kinase phosphorylation assay, EGFR
Assay type: biochemical
test-context: recombinant intracellular fragment; ATP at Km concentration; read-out: IC50 (nM) Test (a): Inhibition of EGFR tyrosine kinase protein phosphorylation
Hey, these are logged values: log10 of IC50, nM being the unit before logging.

COc1cc(OC[C@H]2CCCN2C(C)=O)c2c(Nc3ccc(F)c(Cl)c3)ncnc2c1 :: 0.00

// switching to the query compound
Entry `COc1cc(OC[C@@H]2CCCN2C(=O)CN2CCCC2)c2c(Nc3ccc(F)c(Cl)c3)ncnc2c1` , log10(IC50) reported as 1.76

---

Consider the following molecules and their measured IC50 readings.
tgt: EGFR tyrosine kinase (Homo sapiens)
Construct: Recombinant intracellular fragments of EGFR, erbB2 and erbB4; made in house; host or cells: baculovirus/Sf21 insect cells (cleared lysate used)
test-description: Test (a) protein tyrosine kinase phosphorylation assay, EGFR
Format: biochemical
test-context: recombinant intracellular fragment; ATP at Km concentration; read-out: IC50 (nM) Test (a): Inhibition of EGFR tyrosine kinase protein phosphorylation
Unit nM implied. Number only.

Some molecules with known IC50 results, for comparison:
COc1cc(OC[C@@H]2C[C@H](O)CN2C(=O)CN(C)C)c2c(Nc3ccc(F)c(Cl)c3)ncnc2c1 :: 42
COc1cc(OC[C@@H]2CCCN2C(=O)CN(C)C)c2c(Nc3ccc(F)c(Cl)c3)ncnc2c1 :: 70

get_value(item= `CCOCCOc1cc(OC[C@H]2CCCN2C(=O)CO)c2c(Nc3ccc(F)c(Cl)c3)ncnc2c1` , readout=IC50) returns 8

Field IC50 (entry `COc1cc(OC[C@H]2CCCN2C(=O)CO)c2c(Nc3ccc(F)c(Cl)c3)ncnc2c1` ) reads 9

---

tgt: erbB2 tyrosine kinase (Homo sapiens, UniProt P04626)
Construct: Recombinant intracellular fragments of EGFR, erbB2 and erbB4; made in house; host or cells: baculovirus/Sf21 insect cells (cleared lysate used)
Sequence (P04626 676-1255 limits assumed): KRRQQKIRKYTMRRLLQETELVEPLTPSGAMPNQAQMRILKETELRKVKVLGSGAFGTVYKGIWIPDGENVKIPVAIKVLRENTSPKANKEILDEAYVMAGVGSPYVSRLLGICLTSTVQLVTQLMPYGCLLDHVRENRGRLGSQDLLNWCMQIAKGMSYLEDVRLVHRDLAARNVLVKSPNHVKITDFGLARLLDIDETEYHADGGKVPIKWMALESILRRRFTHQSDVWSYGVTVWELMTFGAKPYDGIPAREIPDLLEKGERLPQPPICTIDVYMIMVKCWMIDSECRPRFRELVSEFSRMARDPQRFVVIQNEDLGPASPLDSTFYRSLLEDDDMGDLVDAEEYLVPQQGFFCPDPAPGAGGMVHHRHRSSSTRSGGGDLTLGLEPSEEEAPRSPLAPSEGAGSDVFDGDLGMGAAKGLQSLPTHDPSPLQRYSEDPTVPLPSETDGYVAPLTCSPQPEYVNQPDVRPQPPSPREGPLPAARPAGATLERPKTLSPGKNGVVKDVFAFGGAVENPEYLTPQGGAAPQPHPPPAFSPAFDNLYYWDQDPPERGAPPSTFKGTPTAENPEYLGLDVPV
test-description: Test (a) protein tyrosine kinase phosphorylation assay, erbB2
Type: biochemical
test-context: recombinant intracellular fragment; ATP at Km concentration; read-out: IC50 (nM) Test (a): Inhibition of erbB2 tyrosine kinase protein phosphorylation
readout-label: log10 of IC50 (log10 of the value in nM)
Scale type: logarithmic (base 10). Underlying IC50 unit: nM.

Study these solved cases before continuing.
O=C(CO)N1CCC[C@@H]1COc1cc(OCCO)cc2ncnc(Nc3ccc(F)c(Cl)c3)c12 :: 1.72
CCOCCOc1cc(OC[C@H]2CCCN2C(=O)CO)c2c(Nc3ccc(F)c(Cl)c3)ncnc2c1 :: 1.93
COc1cc(OC[C@H]2C[C@H](O)CN2C(C)=O)c2c(Nc3ccc(F)c(Cl)c3)ncnc2c1 :: 1.79
COCC(=O)N1C[C@@H](O)C[C@@H]1COc1cc(OC)cc2ncnc(Nc3ccc(F)c(Cl)c3)c12 :: 3.24
COc1cc(OC[C@H]2C[C@@H](O)CN2C(=O)CO)c2c(Nc3ccc(F)c(Cl)c3)ncnc2c1 :: 2.33

Form: compound = `COc1cc(OC[C@@H]2C[C@@H](O)CN2C(=O)CO)c2c(Nc3ccc(F)c(Cl)c3)ncnc2c1` ; log10 of IC50 = 3.28

Memo: `COc1cc(OC[C@H]2CCCN2C(=O)CO)c2c(Nc3ccc(F)c(Cl)c3)ncnc2c1` , reported log10 of IC50: 2.44

Documented log10 of IC50 of `COc1cc(OC[C@H]2CCCN2C(=O)CN(C)C)c2c(Nc3ccc(F)c(Cl)c3)ncnc2c1` : 2.40

---

# maps each entry to its IC50
tgt: EGFR tyrosine kinase (Homo sapiens)
Construct: Recombinant intracellular fragments of EGFR, erbB2 and erbB4; made in house; host or cells: baculovirus/Sf21 insect cells (cleared lysate used)
test-description: Test (a) protein tyrosine kinase phosphorylation assay, EGFR
Type: biochemical
test-context: recombinant intracellular fragment; ATP at Km concentration; read-out: IC50 (nM) Test (a): Inhibition of EGFR tyrosine kinase protein phosphorylation
Field: numeric (nM). Do not append units.

The cases that follow already have their IC50 on record.
O=C(CO)N1CCC[C@@H]1COc1cc(OCCO)cc2ncnc(Nc3ccc(F)c(Cl)c3)c12 :: 1
COCC(=O)N1C[C@@H](O)C[C@@H]1COc1cc(OC)cc2ncnc(Nc3ccc(F)c(Cl)c3)c12 :: 56
COc1cc(OC[C@H]2C[C@H](O)CN2C(C)=O)c2c(Nc3ccc(F)c(Cl)c3)ncnc2c1 :: 1
COc1cc(OC[C@H]2CCCN2C(=O)CN(C)C)c2c(Nc3ccc(F)c(Cl)c3)ncnc2c1 :: 39
COc1cc(OC[C@H]2C[C@@H](O)CN2C(=O)CO)c2c(Nc3ccc(F)c(Cl)c3)ncnc2c1 :: 18

Then this compound:
Record summary for `COc1cc(OC[C@@H]2C[C@@H](O)CN2C(=O)CO)c2c(Nc3ccc(F)c(Cl)c3)ncnc2c1` : reported IC50 = 32

---

# IC50 values compiled below
tgt: erbB2 tyrosine kinase (Homo sapiens)
Construct: Recombinant intracellular fragments of EGFR, erbB2 and erbB4; made in house; host or cells: baculovirus/Sf21 insect cells (cleared lysate used)
test-description: Test (a) protein tyrosine kinase phosphorylation assay, erbB2
Type: biochemical
test-context: recombinant intracellular fragment; ATP at Km concentration; read-out: IC50 (nM) Test (a): Inhibition of erbB2 tyrosine kinase protein phosphorylation
Method: a) Protein Tyrosine Kinase Phosphorylation Assays Recombinant intracellular fragments of EGFR, erbB2 and erbB4 (accession numbers X00588, X03363 and L07868 respectively) were cloned and expressed in the baculovirus/Sf21 system. […] Constitutive kinase activity of the recombinant protein was determined by its ability to phosphorylate a synthetic peptide (made up of a random co-polymer of Glutamic Acid, Alanine and Tyrosine in the ratio of 6:3:1). […]
# answer = value followed by unit

Take a look at these entries with their results.
COc1cc(OC[C@H]2CCCN2C(C)=O)c2c(Nc3ccc(F)c(Cl)c3)ncnc2c1 :: 358 nM
COc1cc(OC[C@@H]2CCCN2C(=O)CN2CCCC2)c2c(Nc3ccc(F)c(Cl)c3)ncnc2c1 :: 1630 nM
COc1cc(OC[C@@H]2CCCN2C(=O)CN(C)C)c2c(Nc3ccc(F)c(Cl)c3)ncnc2c1 :: 1850 nM

For this compound ( `COc1cc(OC[C@@H]2C[C@H](O)CN2C(=O)CN(C)C)c2c(Nc3ccc(F)c(Cl)c3)ncnc2c1` ), measured IC50 is 532 nM
